The entries below pair compounds with pIC50 values for Autotaxin (Homo sapiens, UniProt Q13822), as found in several publications.
Note: pIC50 values are expressed as the negative base-10 logarithm of concentration in M.

(Q) Recorded pIC50 for `Cc1cc(OCc2n[nH]c(=O)n2C)c(-c2cncc(C(N)=O)c2)cc1Cl` with Autotaxin (Homo sapiens, UniProt Q13822), please?
(A) 6.04

(Q) For Autotaxin (Homo sapiens, UniProt Q13822), provide pIC50 of `O=C1N[C@@H]2CCN(C(=O)N3C[C@H]4CN(C(=O)/C=C/c5ccc(OC(F)(F)F)cc5)C[C@@H]4C3)C[C@H]2O1` please.
(A) 6.55

(Q) Please provide the recorded pIC50 for `Cc1cc(OCc2n[nH]c(=O)n2C)c(-c2cc(Cl)cc(C(N)=O)c2)cc1Cl` , tested on Autotaxin (Homo sapiens, UniProt Q13822).
(A) 7.10

(Q) Missing value: pIC50, Autotaxin (Homo sapiens, UniProt Q13822), entry `Cc1ccc2ccc(C(=O)N3C[C@@H]4[C@H](C3)[C@H]3CN(C(=O)c5ccc6[nH]nnc6c5)C[C@@H]43)cc2c1` . Fill in?
(A) 7.35

(Q) // lookup pIC50 | system=Autotaxin (Homo sapiens, UniProt Q13822) | key= `N#Cc1ccc(COC(=O)N2C[C@@H]3CN(C(=O)c4ccc5[nH]nnc5c4)C[C@H]3C2)c(OCC(F)(F)F)c1`
(A) 7.40

(Q) Please tell me: pIC50 of O=C(c1cc(OCC2CCCOC2)nc(C2CC2)c1)N1C[C@@H]2CN(C(=O)[C@@H]3CCc4[nH]nnc4C3)C[C@H]2C1 (some centres unmarked) , system Autotaxin (Homo sapiens, UniProt Q13822)?
(A) 7.77

* * *

// read-out IC50, gathered for UniProtKB Q13822 from published studies

(Q) UniProtKB Q13822 / IC50 / O=C1NCC2Cc3c(n(Cc4ccc(F)cc4)c4ccccc34)CN12 (racemic) : value?
(A) < 0.5 µM

(Q) Query the reported IC50 for UniProtKB Q13822; item: `CN(C)C1CN(C(=O)c2cnc(NCc3cc(OC(F)(F)F)cc(C4CC4)c3)nc2)C1`
(A) 0.1 to 1 µM

(Q) State its IC50 on UniProtKB Q13822: `CCOC(=O)CN1C[C@@H](C)n2nc(-c3ccc(Cl)cc3)cc2C1=O`
(A) ≥ 1 µM

(Q) # returns recorded IC50 (system: UniProtKB Q13822) for `O=C(OCc1cc(Cl)cc(Cl)c1)N1CCC2(CC1)CN(C(=O)c1ccc3[nH]c(=O)oc3c1)C2`
(A) 0.007 µM

* * *

Assembled from different publications: pIC50 for Autotaxin (Homo sapiens, UniProt Q13822).
pIC50: −log10 of the molar value.

(Q) Name the recorded pIC50 for `CCc1nc2sc(N3CC[C@H](N(C)CC(=O)N4CC(C(=O)OC)C4)C3)nn2c1N(C)c1nc(-c2ccc(F)cc2)c(C#N)s1` .
(A) 7.00 to 11.00

(Q) May I ask what pIC50 has been recorded for `CCc1ccc(F)c(C(=O)N[C@@H](C(=O)N2CCC(C)(Nc3ccc(S(C)(=O)=O)cc3)CC2)C(C)C)c1` ?
(A) 7.00 to 8.00

(Q) Report pIC50 for `O=C(/C=C/c1ccc(OC(F)(F)F)cc1)N1CC[C@@H]2CN(C(=O)N3CCc4[nH]cnc4C3)C[C@@H]2CC1` please.
(A) 6.61

* * *

Collected literature values of pIC50 measured for Autotaxin (Homo sapiens).
Note on pIC50: it is the negative log10 of concentration, concentration in mol/L.

(Q) Sample `Cc1nnc(-c2ccc(OCc3n[nH]c(=O)n3C)c(C(C)(C)C)c2)o1` — what was its pIC50?
(A) 6.98

(Q) // lookup pIC50 for `N#Cc1cc(Cl)cc(COC(=O)N2CC3(CC(NC(=O)c4ccc5[nH]nnc5c4)C3)C2)c1`
(A) 5.25

(Q) Using the record for `CC(C)(C)c1cc(C#N)ccc1OCC(=O)N1CCc2cc(C(=O)N3CCc4[nH]nnc4C3)nn2CC1` , report its pIC50.
(A) 8.00

(Q) Any idea what pIC50 was measured for `N#Cc1cc(-c2cc(OC3CC3)ccc2F)c(OCc2ccc(=O)[nH]n2)cc1Cl` ?
(A) 8.30

(Q) What does the data say about its pIC50? Entry: `Cn1c(COc2ccc(C#N)cc2-c2ccccc2)n[nH]c1=O`
(A) 7.60

(Q) # lookup: pIC50 of `CS(=O)(=O)c1cc(Cl)ccc1COC(=O)N1CCC2(CC1)CN(C(=O)c1ccc3[nH]nnc3c1)C2`
(A) 6.85

(Q) Quick one: pIC50 of `O=C1N[C@@H]2CCN(C(=O)N3C[C@H]4CCN(C(=O)/C=C/c5ccc(OC(F)(F)F)cc5)CC[C@H]4C3)C[C@@H]2O1` ?
(A) 6.04

(Q) For `O=C(OCc1cc(Cl)cc(Cl)c1)N1CC[C@@H]2CN(C(=O)c3ccc4[nH]nnc4c3)C[C@@H]2CC1` , what is its reported pIC50?
(A) 8.40

(Q) I'd like to know its pIC50. The compound in question is `O=C(CCc1ccc(OC(F)F)c(F)c1)N1CCc2cc(C(=O)N3CCc4[nH]nnc4C3)nn2CC1`
(A) 7.80

(Q) Fill blank: measured pIC50 of the compound CO[C@]12CN(C(=O)OCc3ncc(C(F)(F)F)cc3NC(=O)C(C)(C)C)C[C@@H]1CN(C(=O)c1ccc(S(N)(=O)=O)cn1)C2 (relative stereo) is ____.
(A) 8.22

(Q) Sample `Nc1ccc(C(=O)N2C[C@H]3CN(C(=O)OCc4cc(Cl)cc(Cl)c4)C[C@H]3C2)nc1` — what was its pIC50?
(A) 5.21

(Q) # pIC50 lookup, item `Cc1cc(OCc2n[nH]c(=O)n2C(C)C)c(C(C)(C)C)cc1C#N`
(A) 7.92

(Q) Name the recorded pIC50 for NS(=O)(=O)c1ccc(C(=O)N2C[C@H]3CN(C(=O)OCc4ccc(OC(F)(F)F)cc4)C[C@]3(F)C2)cc1 (racemic) .
(A) 8.52

(Q) Would you mind telling me what pIC50 value was observed for `O=C(/C=C/c1cc(Cl)cc(C(F)(F)F)c1)N1CC[C@@H]2CN(C(=O)c3ccc4[nH]nnc4c3)C[C@@H]2CC1` ?
(A) 8.10

(Q) Request the reported pIC50 associated with `O=C(COc1cc(Cl)ccc1C(F)(F)F)N1CC[C@@H]2CN(C(=O)c3ccc4[nH]nnc4c3)C[C@@H]2CC1`
(A) 8.70

* * *

Consider the following pIC50 data for UniProt:Q13822, collected from several reports.
pIC50: −log10 of the molar value.

(Q) Please state recorded pIC50 (tested on UniProt:Q13822) of `O=C(COc1ccccc1-c1ccccc1)N1C[C@@H]2CN(C(=O)c3ccc4[nH]nnc4c3)C[C@H]2C1`
(A) 7.57

(Q) Give recorded pIC50 with UniProt:Q13822 for the following molecule: `O=C(c1cnc(NCc2cc(OC(F)(F)F)cc(C3CC3)c2)nc1)N1CCCC12COC2`
(A) > 7.00

(Q) I'm curious: which pIC50 was measured for `Cc1c(Sc2cccc(C(=O)O)c2)c2ccc(Cl)c(F)c2n1CC(=O)N1CC(n2cccn2)C1` tested on UniProt:Q13822?
(A) ≥ 6.30

(Q) Param readout= pIC50; system= UniProt:Q13822; entry= `CC(C)[C@@H](NC(=O)c1cc(C(F)(F)F)ccc1F)C(=O)N1CCC2(CC1)NC(=O)N(C)C2=O` ; returns value.
(A) ≤ 6.00

(Q) Provide the documented pIC50 with UniProt:Q13822 as the system for `CCc1nc2sc(N3CC[C@@H](N(C)CC(=O)N4CC(C(=O)OC)C4)C3)nn2c1N(C)c1nc(-c2ccc(F)cc2)c(C#N)s1`
(A) 6.30 to 7.00

(Q) Give recorded pIC50 with UniProt:Q13822 for the following molecule: `Cc1ccc(C(F)(F)F)cc1C(=O)N[C@@H](C(=O)N1CCC2(CC1)C(=O)N(C)CN2c1ccc(C(=O)O)cc1)C(C)C`
(A) 6.00 to 6.30

(Q) Enter reported pIC50 observed with UniProt:Q13822 for `Cc1nc2cc(CN3C(=O)N(C)C(=O)C34CCN(C(=O)[C@H](NC(=O)c3cc(C(F)(F)F)ccc3F)C(C)C)CC4)ccc2o1`
(A) > 6.30

(Q) What pIC50 appears in the records for this molecule with UniProt:Q13822? `O=C(c1cnc(NCc2cc(OC(F)(F)F)cc(C3CC3)c2)nc1)N1CCC12CCOCC2`
(A) > 7.00

(Q) API: value(readout=pIC50, system=UniProt:Q13822) for record `O=C(/C=C/c1ccc(C(F)(F)F)cc1)N1C[C@@H]2CN(C(=O)c3ccc4[nH]nnc4c3)C[C@H]2C1`
(A) 8.30

(Q) # returns recorded pIC50 (system: UniProt:Q13822) for CCC(NC1CC(C(=O)O)C1(C)C)c1ccc2c(C(F)(F)F)c(O[C@H]3CC[C@@H](C)CC3)ccc2c1 (relative stereo)
(A) ≥ 6.30

(Q) Enter reported pIC50 observed with UniProt:Q13822 for CO[C@]12CN(C(=O)CCc3ccc(OC(F)(F)F)cc3)C[C@@H]1CN(C(=O)c1ccc(S(N)(=O)=O)cc1F)C2 (relative stereo)
(A) 8.00

(Q) Which pIC50 is reported with UniProt:Q13822 for this entry: CCCCCC1CN(CC(=O)N2CCC(C(=O)O)CC2)C(=O)c2cc(-c3ccc(Cl)cc3)nn21 (centres unmarked) ?
(A) > 8.00

(Q) Recall the recorded pIC50 for `CCc1nc2sc(N3CCN(CC(=O)N4CC(O)C4)CC3)nn2c1N(C)c1nc(-c2ccc(F)cc2)c(C#N)s1` with UniProt:Q13822 and state it.
(A) 6.30 to 7.00

(Q) Which measured pIC50 belongs to `Cc1cc(OCc2n[nH]c(=O)n2C)c(-c2cc(C(F)(F)F)nn2C)cc1Cl` , tested on UniProt:Q13822?
(A) 6.90
